molecular target: UniProt:Q9NZC2; assay: Phospho-Syk AlphaScreen/AlphaLISA assay in TREM2 and DAP12 overexpressing HEK293 cells (Example A1); type: cell-based; design: expressed in transfected cells; details: HEK293 cells, read-out: hTREM2 EC50
Sequence (Q9NZC2 19-230): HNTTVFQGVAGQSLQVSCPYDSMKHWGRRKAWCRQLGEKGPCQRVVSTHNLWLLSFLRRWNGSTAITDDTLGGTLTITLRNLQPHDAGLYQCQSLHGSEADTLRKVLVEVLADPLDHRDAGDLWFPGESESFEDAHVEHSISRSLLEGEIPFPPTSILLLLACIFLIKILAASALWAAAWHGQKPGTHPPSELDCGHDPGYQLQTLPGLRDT
Sequence (O43914 22-113 partner): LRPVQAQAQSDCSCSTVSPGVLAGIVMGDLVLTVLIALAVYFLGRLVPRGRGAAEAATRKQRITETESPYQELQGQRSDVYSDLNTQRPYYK
MEASUREMENT KIND: EC50

Cc1nc2cc(N3CCC(c4cccnc4)C3)nc(-c3ccc(Cl)cc3F)c2c(=O)n1C (centres unmarked)    50 to 500 nM
Cc1nc2cc(N3CC[C@@H](C(F)(F)F)C3)nc(-c3ccc(Cl)cc3F)c2c(=O)n1C    3000 to 100000 nM
Cc1nc2cc(N3CCO[C@@H](c4cnn(C5CCC5)c4)C3)nc(-c3ccc(Cl)cc3F)c2c(=O)n1C    < 50 nM
Cc1nc2cc(N3CCO[C@@H](c4cnn(C(CF)CF)c4)C3)nc(-c3ccc(Cl)cc3F)c2c(=O)n1C    < 50 nM

The record that follows has no EC50 shown yet.
Looking up Cc1nc2cc(N3CCO[C@H](c4ccnc(OCC(F)(F)F)c4)C3)nc(-c3ccc(Cl)cc3F)c2c(=O)n1C (single isomer, unassigned) , I see its EC50 listed as 50 to 500 nM
